System: K12877-001-R-J1-PDC complex spheroid viability;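 also: tumour cells co-cultured with HUVEC and mesenchymal stem cells in spheroids; spheroids exposed to agents for one week before readout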
Experiment: Anticancer human tumor K12877-001-R-J1-PDC patient-derived lung adenocarcinoma cell line growth inhibition [RAS]
Conditions: second compound 0.3 µM; first compound 0.0316 µM; active compounds read low
Text: RAS pathway inhibitors in Combinations in Complex Spheroids A high-throughput screen of multi-cell type tumor spheroids was designed to identify active combinations of RAS pathway inhibitors and targeted small molecules. Complex spheroids include a stromal component modeled by human endothelial cells (HUVEC) and fibroblasts modeled by human mesenchymal stem cells (MSCs). […] Compounds. […] If the clinical Cmax for an agent had not been determined, the highest concentration tested was 10 microM. […]
Under this convention, MET denotes viability, T/C strictly below 70% and NOT MET denotes viability, T/C at or above 70%.

Example entries and their recorded answers appear below.
CC1(O)CCCC1n1c(=O)c(C(F)F)cc2cnc(NC3CCN(S(C)(=O)=O)CC3)nc21 (configuration not stated) + CCn1c(-c2cc(N3CCN(C)CC3)cnc2C(C)OC)c2c3cc(ccc31)-c1csc(n1)CC(NC(=O)C1CC1C)C(=O)N1CCCC(N1)C(=O)OCC(C)(C)C2 : NOT MET
CCC(CC)c1cc(NC2CCC(N)C2)n2nccc2n1 (configuration not stated) + CCn1c(-c2cccnc2C(C)OC)c2c3cc(ccc31)N1CCOC(CC(NC(=O)C(C(C)C)N(C)C(=O)C3(F)CCN(C(=O)C#CC(C)(C)N(C)C)CC3)C(=O)N3CCCC(N3)C(=O)OCC(C)(C)C2)C1 : NOT MET
C=CC(=O)N1CCN(c2nc(OCC3CCCN3C)nc3c(F)c(-c4nc(N)cc(C)c4C(F)(F)F)c(Cl)cc23)C(C)C1 (configuration not stated) + CCn1c(-c2cccnc2C(C)OC)c2c3cc(ccc31)N1CCOC(CC(NC(=O)C(C(C)C)N(C)C(=O)C3(F)CCN(C(=O)C#CC(C)(C)N(C)C)CC3)C(=O)N3CCCC(N3)C(=O)OCC(C)(C)C2)C1 : MET
CC(C)n1nc(-c2ccc3oc(N)nc3c2)c2c(N)ncnc21 + CCn1c(-c2cccnc2C(C)OC)c2c3cc(ccc31)N1CCOC(CC(NC(=O)C(C(C)C)N(C)C(=O)C3(F)CCN(C(=O)C#CC(C)(C)N(C)C)CC3)C(=O)N3CCCC(N3)C(=O)OCC(C)(C)C2)C1 : MET
CC(Nc1ccc2c(c1)OCCn1cc(N3C(=O)OCC3C(F)F)nc1-2)C(N)=O (configuration not stated) + CCn1c(-c2cc(N3CCN(C)CC3)cnc2C(C)OC)c2c3cc(ccc31)-c1csc(n1)CC(NC(=O)C1CC1C)C(=O)N1CCCC(N1)C(=O)OCC(C)(C)C2 : MET

Alright, here's another compound for you.
Problem: For the compound Cc1nc(N2CCC3(CC2)COC(C)C3N)c(CO)nc1Sc1ccnc(N)c1Cl (configuration not stated) + CCn1c(-c2cc(N3CCN(C)CC3)cnc2C(C)OC)c2c3cc(ccc31)-c1csc(n1)CC(NC(=O)C1CC1C)C(=O)N1CCCC(N1)C(=O)OCC(C)(C)C2 , is viability, T/C under 70%?
NOT MET
